system: L1210 leukemia ip in BDF1 mice, survival T/C; test: NCI In Vivo Anticancer Drug Screen. Data for tumor model L1210 Leukemia (intraperitoneal) in B6D2F1 (BDF1) mice; conditions: endpoint: mean survival time; dose: 400.0 mg/kg/injection; schedule: Q04DX003 (ip); vehicle: Klucel (hydroxypropylcellulose) (HPC); higher = longer survival
Toxic doses and inconclusive results are not listed.
Catalogue of T/C readings, one per entry.

Compound	T/C
CC(C)=CCNC(=O)NS(=O)(=O)c1ccc(Cl)cc1	100 % of control
Cc1ccn(C(N)=O)n1	100 % of control

## Task Form: Entry = "Nc1ccccc1/C=C(\C(=O)O)c1cccc(Cl)c1" | System = L1210 leukemia ip in BDF1 mice, survival T/C | T/C = ____
## Result 108 % of control

## Task What do you have for "CN1CN(c2ccccc2)C2(CCN(CCCCCCC#N)CC2)C1=O" ?
## Result 97 % of control

## Task Cool, now "O=C(O)CCc1c2ccc(=O)cc-2oc2cc(O)ccc12"
## Result 92 % of control

## Task Request: ClC1OC(Cl)(Cl)C(Cl)(Cl)OC1(Cl)Cl (stereo unspecified)
## Result 96 % of control

## Task Further, for C1CC2CC2CCC2CC12 (stereo unspecified) ?
## Result 101 % of control

## Task Subsequent entry: CCCC1OC(=O)C(C)O1 (stereo unspecified)
## Result 103 % of control
